Data origin: paper PMC12135066

Experiment: Biodistribution studies in HEK-uPAR xenograft-bearing nude mice
Conditions: female, CD1/nude, mouse, lung, 5 MBq (0.5 nmol), total radioactivity, 4 h p.i.; 5 MBq, 0.5 nmol; decay-corrected; average ± SD, n=3 animals
measured property: tissue uptake at 4 h (%ID/g)
Quick reminder: number only, in %ID/g, skip the unit.

[[record]]
compound = "CC(C)C[C@H](NC(=O)[C@H](Cc1ccc(O)cc1)NC(=O)[C@@H](CCCNC(=N)N)NC(=O)[C@@H](CO)NC(=O)[C@H](Cc1ccccc1)NC(=O)[C@H](CC1CCCCC1)NC(=O)[C@H](CC(=O)O)NC(=O)CCOCCOCCOCCOCCNC(=O)[C@H](CCCCNC(=O)CCCc1ccc(I)cc1)NC(=O)CN1CCN(CC(=O)O)CCN(CC(=O)O)CCN(CC(=O)O)CC1)C(=O)N[C@@H](Cc1c[nH]c2ccccc12)C(=O)N[C@@H](CO)C(N)=O [[^177Lu]Lu-uPAR-05, metal not drawn]"
result = 7

[[record]]
compound = "CC(C)C[C@H](NC(=O)[C@H](Cc1ccc(O)cc1)NC(=O)[C@@H](CCCNC(=N)N)NC(=O)[C@@H](CO)NC(=O)[C@H](Cc1ccccc1)NC(=O)[C@H](CC1CCCCC1)NC(=O)[C@H](CC(=O)O)NC(=O)[C@H](CCCCNC(=O)CCCc1ccc(I)cc1)NC(=O)CN1CCN(CC(=O)O)CCN(CC(=O)O)CCN(CC(=O)O)CC1)C(=O)N[C@@H](Cc1c[nH]c2ccccc12)C(=O)N[C@@H](CO)C(N)=O [[^177Lu]Lu-uPAR-01, metal not drawn]"
result = 9.4

[[record]]
compound = "CC(C)C[C@H](NC(=O)[C@H](Cc1ccc(O)cc1)NC(=O)[C@@H](CCCNC(=N)N)NC(=O)[C@@H](CO)NC(=O)[C@H](Cc1ccccc1)NC(=O)[C@H](CC1CCCCC1)NC(=O)[C@H](CC(=O)O)NC(=O)[C@H](CCCCNC(=O)CCCc1ccc(I)cc1)NC(=O)[C@@H](N)CCCCNC(=O)CN1CCN(CC(=O)O)CCN(CC(=O)O)CCN(CC(=O)O)CC1)C(=O)N[C@@H](Cc1c[nH]c2ccccc12)C(=O)N[C@@H](CO)C(N)=O [[^177Lu]Lu-uPAR-04, metal not drawn]"
result = 6.2


Turning now to a further compound:
Q: Requested read-out: tissue uptake at 4 h. Entry: CC(C)C[C@H](NC(=O)[C@H](Cc1ccc(O)cc1)NC(=O)[C@@H](CCCNC(=N)N)NC(=O)[C@@H](CO)NC(=O)[C@H](Cc1ccccc1)NC(=O)[C@H](CC1CCCCC1)NC(=O)[C@H](CC(=O)O)NC(=O)CN1CCN(CC(=O)O)CCN(CC(=O)O)CCN(CC(=O)O)CC1)C(=O)N[C@@H](Cc1c[nH]c2ccccc12)C(=O)N[C@@H](CO)C(N)=O [[^177Lu]Lu-DOTA-AE105, metal not drawn, reference compound]
Ans: 0.3

====

Experiment: in vivo
Conditions: female, CD1/nude, mouse, 5 MBq (0.5 nmol), total radioactivity, Muscle
measured property: tissue uptake at 4 h (%ID/g)
Quick reminder: number only, in %ID/g, skip the unit.

[[record]]
molecule = "CC(C)C[C@H](NC(=O)[C@H](Cc1ccc(O)cc1)NC(=O)[C@@H](CCCNC(=N)N)NC(=O)[C@@H](CO)NC(=O)[C@H](Cc1ccccc1)NC(=O)[C@H](CC1CCCCC1)NC(=O)[C@H](CC(=O)O)NC(=O)[C@H](CCCCNC(=O)CCOCCOCCOCCOCCNC(=O)CCCc1ccc(I)cc1)NC(=O)CN1CCN(CC(=O)O)CCN(CC(=O)O)CCN(CC(=O)O)CC1)C(=O)N[C@@H](Cc1c[nH]c2ccccc12)C(=O)N[C@@H](CO)C(N)=O [[^177Lu]Lu-uPAR-02, metal not drawn]"
result = 1.4


Q: Requested read-out: tissue uptake at 4 h. Entry: CC(C)C[C@H](NC(=O)[C@H](Cc1ccc(O)cc1)NC(=O)[C@@H](CCCNC(=N)N)NC(=O)[C@@H](CO)NC(=O)[C@H](Cc1ccccc1)NC(=O)[C@H](CC1CCCCC1)NC(=O)[C@H](CC(=O)O)NC(=O)[C@H](CCCCNC(=O)CCOCCOCCOCCOCCNC(=O)c1ccc(CNC(=O)CCCc2ccc(I)cc2)cc1)NC(=O)CN1CCN(CC(=O)O)CCN(CC(=O)O)CCN(CC(=O)O)CC1)C(=O)N[C@@H](Cc1c[nH]c2ccccc12)C(=O)N[C@@H](CO)C(N)=O [[^177Lu]Lu-uPAR-03, metal not drawn]
Ans: 1.3
